Here, each record is paired with measured Tm data.
experiment: Binding affinity to poly(A) tail mRNA (unknown origin) assessed as melting temperature of poly(A) self-structure by UV absorption/CD melting analysis
The figure you give is taken to be in °C; do not add the unit.

- smiles-str: "COc1ccc2cc3[n+](cc2c1OCCCCN)CCc1cc2c(cc1-3)OCO2"
  Tm [°C]: 58
- smiles-str: "COc1ccc2cc3[n+](cc2c1OCCN)CCc1cc2c(cc1-3)OCO2"
  Tm [°C]: 59
- smiles-str: "COc1ccc2cc3[n+](cc2c1OCCCCCCN)CCc1cc2c(cc1-3)OCO2"
  Tm [°C]: 59.5

# input Item COc1ccc2cc3[n+](cc2c1OC)CCc1cc2c(cc1-3)OCO2 has what recorded Tm?
# output 58
